The reported numbers originate from patent US20230135635A1.

# target.or.test.system: recombinant human ULK1 protein (1-649) (Homo sapiens)
# Construct: recombinant human ULK1 protein (1-649, SignalChem #U01-11G); purchased SignalChem U01-11G
# Sequence (O75385 1-649): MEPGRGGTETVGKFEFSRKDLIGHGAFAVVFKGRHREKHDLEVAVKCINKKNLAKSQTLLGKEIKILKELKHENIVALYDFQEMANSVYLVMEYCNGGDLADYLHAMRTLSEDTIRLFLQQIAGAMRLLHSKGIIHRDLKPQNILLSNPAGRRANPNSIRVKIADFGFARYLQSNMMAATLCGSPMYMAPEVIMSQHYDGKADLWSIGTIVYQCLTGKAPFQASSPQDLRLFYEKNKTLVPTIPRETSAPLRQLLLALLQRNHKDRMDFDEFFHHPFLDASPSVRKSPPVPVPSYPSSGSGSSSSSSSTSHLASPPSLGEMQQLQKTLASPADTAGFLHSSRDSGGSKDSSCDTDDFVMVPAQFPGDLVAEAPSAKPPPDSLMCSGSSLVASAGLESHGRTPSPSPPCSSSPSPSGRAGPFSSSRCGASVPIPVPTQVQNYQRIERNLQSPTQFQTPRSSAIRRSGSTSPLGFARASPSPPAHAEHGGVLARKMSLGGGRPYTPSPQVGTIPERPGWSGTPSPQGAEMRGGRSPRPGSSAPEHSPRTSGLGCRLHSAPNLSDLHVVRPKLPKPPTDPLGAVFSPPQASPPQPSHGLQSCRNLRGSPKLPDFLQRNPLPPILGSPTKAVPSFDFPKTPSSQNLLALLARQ
# measurement.notes: ULK1 inhibition assay (ADP Glo)
# Format: biochemical
# cond: Table 1; 25 uM ATP, MBP substrate, one hour
pIC50: −log10 of the molar value.
observation.type: pIC50

molecule: FC(F)(F)c1cnc(Nc2ccc3c(c2)CCN(Cc2c[nH]cn2)C3)nc1NC1CC1
observation.type: pIC50
reported.result: > 9.00

In: // pIC50 lookup, key: COC(=O)N1CCc2cc(Nc3ncc(C(F)(F)F)c(NC4CC4)n3)ccc2C1
Out: 8.00 to 9.00

In: // pIC50 lookup, key: CNC(=O)c1ccccc1Nc1nc(Nc2ccc3c(c2)CCN(C(=O)CCN)C3)ncc1Br
Out: < 8.00

In: // pIC50 lookup, key: NS(=O)(=O)N1CCc2cc(Nc3ncc(C(F)(F)F)c(NC4CC4)n3)ccc2C1
Out: > 9.00

In: // pIC50 lookup, key: CC(=O)CN1CCc2cc(Nc3ncc(C(F)(F)F)c(NC4CC4)n3)ccc2C1
Out: > 9.00
